B1: TRIM14 (parent)
chain: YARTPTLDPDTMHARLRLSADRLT

- Variants of: B1
- Protocol Summary: protein stability index of a GFP-peptide fusion (GPS, HEK-293T) (PSI 1-6); higher = more stable;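 note: lentivirally expressed fusions sorted by FACS into six bins by GFP to DsRed ratio, PSI derived from sequencing read proportions per bin multiplied by bin number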
- Measurement Setup: c terminus: a fixed tail appended
# if value of protein stability index reaches 3, tag met; if it stays below, tag not met

Item `L16I` with protein stability index of 3 or above?
not met

Item `A14G` with protein stability index of 3 or above?
met
